# Study Target: Bromodomain-containing protein 4 (Homo sapiens) (UniProt O60885)
# Procedure Summary: Inhibition of BRD4 in human K562 cells harboring BCR-ABL assessed as decrease in metabolic activity at 10 uM measured after 72 hrs by MTT assay
# Format: cell-based
Active and inactive are the calls of the source. No cut-off for these calls is given here.

Compound: CN1Cc2cc(N=S(C)(=N)c3ccccc3)ccc2NC1=O (centres undefined)
inhibition: inactive
--
Compound: CN=S(C)(=Nc1ccc2c(c1)CN(C)C(=O)N2)c1ccccc1 (centres undefined)
inhibition: inactive
--
Compound: COc1ccccc1S(C)(=O)=Nc1ccc2c(c1)CN(C)C(=O)N2 (centres undefined)
inhibition: inactive
--
Compound: CN1Cc2cc(N=S(C)(=Nc3ccccc3)c3ccccc3)ccc2NC1=O (centres undefined)
inhibition: inactive

###

# Study Target: Bromodomain-containing protein 4 (Homo sapiens) (UniProt O60885)
# Procedure Summary: Inhibition of BRD4 in human MOLM-14 cells harboring FLT3-ITD mutant assessed as decrease in metabolic activity at 10 uM measured after 72 hrs by MTT assay
# Type: cell-based
Calls of active or inactive are those of the source. The calls are words filed in the database; no cut-off is given here.

Compound: COc1ccccc1S(C)(=O)=Nc1ccc2c(c1)CN(C)C(=O)N2 (centres undefined)
inhibition: Active
--
Compound: CN1Cc2cc(N=S(C)(=Nc3ccccc3)c3ccccc3)ccc2NC1=O (centres undefined)
inhibition: Active
--
Compound: CN1Cc2cc(N=S(C)(=N)c3ccccc3)ccc2NC1=O (centres undefined)
inhibition: Active
--
Compound: CN=S(C)(=Nc1ccc2c(c1)CN(C)C(=O)N2)c1ccccc1 (centres undefined)
inhibition: Active

Ref: ChEMBL document CHEMBL4725438
